Form: system (Metabotropic glutamate receptor 2 (Rattus norvegicus) (UniProt P31421)), quantity (pIC50), values below.
Answers are plain numbers, as −log10 of the molar value.

Known pIC50 results, listed for orientation:
Molecule	Experimental Target	Experimental Endpoint	Numeric Readout
COc1ccc(C#Cc2ccc(C(=O)N3CCCC(CO)C3)cc2)cc1 (stereo not drawn)	Metabotropic glutamate receptor 2 (Rattus norvegicus) (UniProt P31421)	pIC50	5.00
COc1ccc(C#Cc2ccc(C(=O)N3CCC[C@@H](CO)C3)cc2)cc1	Metabotropic glutamate receptor 2 (Rattus norvegicus) (UniProt P31421)	pIC50	5.00

(Q) Return pIC50 (reported value) for this molecule: COc1ccc(C#Cc2ccc(C(=O)N3CCC[C@H](CO)C3)cc2)cc1
(A) 5.00

Source of measurements: PubChem BioAssay AID623929
